The measurements presented in this section are drawn from paper PMC9882070.

biological target: the molecule itself; test: ThT fluorescence aggregation assay + negative-stain TEM
For each entry below, report its t1/2max of ThT aggregation value.

>>> meas_value("TENLKHQPGGGQVQIVYQ [R1R3_23Q tau peptide]")
"< 6 h"
>>> meas_value("TENLQHQPGGGQVQIVYK [R1R3_12Q tau peptide]")
"< 36 h"

Query protein follows.
**Q:** Could you tell me which t1/2max of ThT aggregation is on file for TENLQHQPGGGQVQIINK [R1R2_12Q tau peptide] ?
**A:** < 36 h
